This collection of values is drawn from PubChem BioAssay (NCI).

# Tested on: SNB-19 CNS
# assay.summary: NCI-60 one-dose screen, 48 h
# experimental.parameters: 10 µM unless noted
About 83,000 compounds went through this panel and 20% of them were active in at least one assay; those are over-represented in the sample as a whole. Calls of active or inactive are those of the source. How the source made its calls: active means growth percent below 10; inactive means the rest.
Select the matching outcome among TRUE (active), FALSE (inactive)

Look up the recorded call for `CCCCCN(CCCCC)CCCCCCCCN1CCCc2ccccc21` in this test.
FALSE

Look up the recorded call for `CCCCCCCCCCCCCCCCCCNC(=S)N/N=C/c1ccc(OC)c(OC)c1` in this test.
FALSE

Look up the recorded call for `CCCCOC(=O)c1cccc([N+](=O)[O-])c1` in this test.
FALSE

Look up the recorded call for `CCCCCCCCCCCCCC[n+]1cccc(C(N)=O)c1` in this test.
TRUE

Look up the recorded call for `Cn1cc(-c2nnc(-c3cn(C)c4ncccc34)s2)c2ccccc21` in this test.
FALSE

New cases:
Look up the recorded call for COc1ccc2nc3c(cc2c1)C(=O)CC(C(F)(F)F)C3 (stereo unspecified) in this test.
FALSE

Look up the recorded call for `Nc1nc(SCc2cccc([N+](=O)[O-])c2)c2[nH]cnc2n1` in this test.
FALSE

Look up the recorded call for `O=C(Nc1cccc2cccnc12)c1cc(C(=O)c2ccc(Cl)cc2)n2ccc(-c3ccncc3)cc12` in this test.
FALSE

Look up the recorded call for COc1ccc2nc3c(cc2c1)C(=O)CC(c1ccccc1)C3 (stereo unspecified) in this test.
FALSE

Look up the recorded call for `NC(=O)c1c(NC(=O)COC(=O)Cc2ccccc2F)sc2c1CCC2` in this test.
FALSE

Look up the recorded call for `O=C(O)c1cccc(CN2CCN(c3cc4c(cc3F)c(=O)c(C(=O)O)cn4C3CC3)CC2)c1O` in this test.
FALSE

Look up the recorded call for `Cc1ccc2c(n1)C(=O)C(Cl)=C(Nc1ccc(N3CCN(C)CC3)cc1)C2=O` in this test.
FALSE

Look up the recorded call for `CC1=CCc2ccccc21` in this test.
FALSE

Look up the recorded call for `Cn1cc(-c2noc(C(=O)c3cn(C)c4ncccc34)n2)c2ccccc21` in this test.
FALSE

Look up the recorded call for `CCCOc1ccc(-c2nc(-c3ccc(N)cc3)cs2)cc1` in this test.
FALSE

Look up the recorded call for `O=C(CCN1CCCCC1)c1ccc(Cl)cc1` in this test.
FALSE

Look up the recorded call for `O=C(NCc1ccc(Cn2c(=O)sn(-c3ccccc3)c2=O)cc1)OCc1ccc2c(Br)cc(Br)c(O)c2n1` in this test.
FALSE

Look up the recorded call for `CC(=O)Nc1ccc(C=Nc2ccc3ccccc3c2)cc1` in this test.
FALSE
